Origin of measurements: PubChem BioAssay AID615

Property: inhibition; scope: individual compounds
# Study system: Alkaline phosphatase, tissue-nonspecific isozyme (Homo sapiens)
# Test summary: blockers of alkaline phosphatase TNAP catalysis – biochemical, colorimetric, p-nitrophenol readout, primary screen (AID 615);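 further: 0% = DMSO only wells and 100% = 1 mM levamisole wells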
# Run parameters: purified TNAP, pNPP hydrolysis, absorbance 405 nm; at 20 µM; hits give high values
Among all 21,000 compounds or so, fewer than 10 were called active. Not all results are given here.
Observable: inhibition (%)

> print(dat)
                                   compound  meas.value
1  O=C(O)CN1C(=O)CC(Cc2ccccc2)C1=O (stereo unspecified)         4.8
2  CCOC(=O)c1c(NC(=O)c2ccc(Br)o2)sc2c1CCCC2           1
3  O=C(NCC1CCCO1)C(C(=O)c1ccccc1)n1cc(Cl)ccc1=O (stereo unspecified)         6.1
4        Cn1nnnc1SCC(=O)N1CCN(Cc2ccccc2)CC1         3.1
5             Cc1cc(C)c2nc(SCCC#N)nc(C)c2c1        -0.5
6                O=C(CSc1ncccn1)NCCc1ccccc1         1.9

----------
# Study system: Alkaline phosphatase, tissue-nonspecific isozyme (Homo sapiens) (UniProt P05186)
# Sequence (P05186 whole entry, looked up): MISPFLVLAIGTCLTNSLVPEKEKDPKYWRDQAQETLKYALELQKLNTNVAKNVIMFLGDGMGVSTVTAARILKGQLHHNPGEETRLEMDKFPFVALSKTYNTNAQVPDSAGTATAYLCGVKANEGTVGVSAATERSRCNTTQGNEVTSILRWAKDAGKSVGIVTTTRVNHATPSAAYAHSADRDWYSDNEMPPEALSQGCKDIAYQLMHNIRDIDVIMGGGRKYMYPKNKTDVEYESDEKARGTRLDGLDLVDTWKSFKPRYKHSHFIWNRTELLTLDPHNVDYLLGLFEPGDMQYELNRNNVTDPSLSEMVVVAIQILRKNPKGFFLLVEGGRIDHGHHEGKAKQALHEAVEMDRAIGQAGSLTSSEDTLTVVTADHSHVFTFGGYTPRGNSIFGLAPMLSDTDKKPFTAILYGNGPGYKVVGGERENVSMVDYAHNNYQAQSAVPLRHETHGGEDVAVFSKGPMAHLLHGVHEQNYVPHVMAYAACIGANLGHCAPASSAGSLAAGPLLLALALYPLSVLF
# Test summary: blockers of alkaline phosphatase TNAP catalysis – biochemical, colorimetric, p-nitrophenol readout, primary screen (AID 615);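 further: 0% = DMSO only wells and 100% = 1 mM levamisole wells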
# Run parameters: purified TNAP, pNPP hydrolysis, absorbance 405 nm; at 20 µM; hits give high values
Hit rate of the full screen: of about 21,000 compounds, fewer than 10 were called active. A selection follows.
Decision: inhibition compared against 3%; not below it gives criterion met, below it gives criterion not met.

> print(dat)
                                   compound        label.class
1  Cc1cc(N2C(=O)C(=O)/C(=C(/O)c3ccccc3)C2c2cccc(Br)c2)no1 (stereo not given)  criterion not met
2  COc1ccc(NC2CC(=O)N(C)C2=O)cc1 (stereo not given)      criterion met
3  CC(=O)C1=C(O)C(=O)N(c2ccc(S(N)(=O)=O)cc2)C1c1ccccc1F (stereo not given)  criterion not met
4  Cc1ccccc1OCCC(=O)Nc1c(C)n(C)n(-c2ccccc2)c1=O  criterion not met
5  CCOc1ccc2nc(NC(=O)CSc3nc4c(c(=O)n(C)c(=O)n4C)n3CC)sc2c1      criterion met

----------
# Study system: Alkaline phosphatase, tissue-nonspecific isozyme (Homo sapiens) (UniProt P05186)
# Test summary: blockers of alkaline phosphatase TNAP catalysis – biochemical, colorimetric, p-nitrophenol readout, primary screen (AID 615);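 further: 0% = DMSO only wells and 100% = 1 mM levamisole wells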
# Run parameters: purified TNAP, pNPP hydrolysis, absorbance 405 nm; at 20 µM; hits give high values
The whole screen tested about 21,000 compounds, of which fewer than 10 were called active. Only a sample is shown.
# inhibition annotations
Observable: inhibition (%)

> print(dat)
                                    compound  meas.value
 1     CNC(=O)CSc1nnc(CCc2ccccc2)n1-c1ccccc1          -9
 2  Cc1cnc(NC(=O)CSc2nnc(-c3ccc(Cl)cc3Cl)n2N)s1        -1.5
 3  CCC(=O)Nc1ccc(C(=O)Nc2ccc3c(c2)C(=O)N(CC2CCCO2)C3=O)cc1 (stereo unspecified)         3.2
 4  COc1ccc(C2/C(=C(/O)c3ccccc3)C(=O)C(=O)N2c2ncccn2)cc1OC (stereo unspecified)        -1.7
 5  CC(=O)N(Cc1cccs1)C1CCOC(C)(C)C1 (stereo unspecified)         2.9
 6  CCOC(=O)c1ccc(N2C(=O)CC(Sc3nc(O)c(CC)c(=O)[nH]3)C2=O)cc1 (stereo unspecified)        -2.3
 7       O=C(O)CN(Cc1ccco1)S(=O)(=O)c1ccccc1           0
 8  Cc1ccc(-n2c(Cc3cccs3)nnc2SCC(=O)OC(C)C)cc1          -1
 9   CCn1nc(NC(=O)c2ccco2)c2cc3ccc(C)cc3nc21         4.2
10  Cc1ccccc1-n1c(SCC(=O)NCc2cccs2)nnc1-c1ccncc1        -7.5
11     COc1ccccc1CNC(=O)C1CCN(S(C)(=O)=O)CC1         7.2

----------
# Study system: Alkaline phosphatase, tissue-nonspecific isozyme (Homo sapiens) (UniProt P05186)
# Test summary: blockers of alkaline phosphatase TNAP catalysis – biochemical, colorimetric, p-nitrophenol readout, primary screen (AID 615);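 further: 0% = DMSO only wells and 100% = 1 mM levamisole wells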
# Run parameters: purified TNAP, pNPP hydrolysis, absorbance 405 nm; at 20 µM; hits give high values
The whole screen tested about 21,000 compounds, of which fewer than 10 were called active. A selection follows.
inhibition values, listed per item
Observable: inhibition (%)

> print(dat)
                                    molecule                              study.system  meas.value
 1         CCCCn1nnnc1NCc1cc(OC)c(OC)c(OC)c1  Alkaline phosphatase, tissue-nonspecific isozyme (Homo sapiens) (UniProt P05186)        -0.6
 2  CC1(C)C2CCC1(C)C(OC(=O)CCn1ccnc1)C2 (configuration not stated)  Alkaline phosphatase, tissue-nonspecific isozyme (Homo sapiens) (UniProt P05186)         3.3
 3  C#CCN1CC(C)/C(=N/O)CC1C (configuration not stated)  Alkaline phosphatase, tissue-nonspecific isozyme (Homo sapiens) (UniProt P05186)         2.4
 4  Cc1cc(NC(=O)CCC(=O)N(c2cccc(F)c2)C(C(=O)NC2CCCC2)c2ccncc2)no1 (configuration not stated)  Alkaline phosphatase, tissue-nonspecific isozyme (Homo sapiens) (UniProt P05186)         2.9
 5    O=C(NC(c1ccccc1)c1ccccc1)N1CCN(CCO)CC1  Alkaline phosphatase, tissue-nonspecific isozyme (Homo sapiens) (UniProt P05186)         5.5
 6   O=S(=O)(NCc1ccc2c(c1)OCO2)c1cccc2nsnc12  Alkaline phosphatase, tissue-nonspecific isozyme (Homo sapiens) (UniProt P05186)         5.8
 7  CC(C)C(c1nnnn1C1CCCC1)N1CCN(c2ccccc2F)CC1 (configuration not stated)  Alkaline phosphatase, tissue-nonspecific isozyme (Homo sapiens) (UniProt P05186)         4.1
 8           CSc1nc(O)c(Cc2ccccc2)c(=O)[nH]1  Alkaline phosphatase, tissue-nonspecific isozyme (Homo sapiens) (UniProt P05186)         0.9
 9                    COc1ccc(CNC2CCCCC2)cc1  Alkaline phosphatase, tissue-nonspecific isozyme (Homo sapiens) (UniProt P05186)         3.7
10  Cc1ccc2c(c1)c1ncn(CCC3=CCCCC3)c(=O)c1n2C  Alkaline phosphatase, tissue-nonspecific isozyme (Homo sapiens) (UniProt P05186)         1.2
11  COc1ccc(N(Cc2cc3cc(OC)ccc3[nH]c2=O)S(C)(=O)=O)cc1  Alkaline phosphatase, tissue-nonspecific isozyme (Homo sapiens) (UniProt P05186)         2.6
12        COc1ccc(NC(=O)c2c(C)oc3c2CCCC3)cc1  Alkaline phosphatase, tissue-nonspecific isozyme (Homo sapiens) (UniProt P05186)         5.5

----------
# Study system: Alkaline phosphatase, tissue-nonspecific isozyme (Homo sapiens) (UniProt P05186)
# Test summary: blockers of alkaline phosphatase TNAP catalysis – biochemical, colorimetric, p-nitrophenol readout, primary screen (AID 615);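 further: 0% = DMSO only wells and 100% = 1 mM levamisole wells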
# Run parameters: purified TNAP, pNPP hydrolysis, absorbance 405 nm; at 20 µM; hits give high values
Fewer than 10 of roughly 21,000 compounds were called active. These entries were drawn from the full list.
Each entry below lists one item and its recorded inhibition value.
Observable: inhibition (%)

> print(dat)
                                    compound  meas.value
 1  COc1ccc(C2/C(=C(/O)c3ccc(OC(C)C)cc3)C(=O)C(=O)N2CCCN2CCOCC2)cc1 (configuration not stated)         2.6
 2            COc1ccccc1Nc1ncc(C(C)=O)c(C)n1         1.9
 3  COc1ccc2c3c(c(=O)oc2c1OCC(=O)C(C)(C)C)CCCC3         3.6
 4  CN(C)CCNC(=O)C(C(=O)c1ccccc1)n1ccccc1=O (configuration not stated)         1.2
 5  C=CCn1c(COc2ccccc2)nnc1SCC(=O)NCC(=O)OCC        -6.9
 6  CC(=O)N1CCN(CCN=CC2=C(O)CC(C)(C)CC2=O)CC1         5.5
 7  CC1=C2C(=O)OC(c3ccoc3)C2(C)CCC1 (configuration not stated)           0
 8  CC(C)c1nnc(NC(=O)C2CCCN2S(=O)(=O)c2ccc(Cl)cc2)s1 (configuration not stated)         3.8
 9    O=C(O)CN(Cc1ccco1)S(=O)(=O)c1ccc(F)cc1         0.4
10  O=C(c1ccco1)N(Cc1nc2ccccc2c(=O)[nH]1)C1CCCC1        -5.2
11      Cc1cc(C(=O)N2CCN(c3ccccn3)CC2)c(C)o1           6
12       Cc1ccc2c(C(=O)CN3CCCC3)c(C)[nH]c2c1       -14.5
13  CC12CCC(C(=O)N(CCC#N)CCC#N)(CC1=O)C2(C)C (configuration not stated)         5.5
14    CCCc1cc(=O)oc2c(C)c(O)c(CN3CCCCC3)cc12         0.2
15   CCC(CC)C(=O)Nc1cc(C(=O)OC)cc(C(=O)OC)c1         4.4
16    Cc1nc2nc(CSc3nc4ccccc4s3)cc(=O)n2[nH]1         1.3
17             Cc1cc(=O)[nH]c(SCC(N)=O)c1C#N        -1.7
18  O=C(C1CCCO1)N1CCC(c2nc3ccccc3[nH]2)CC1 (configuration not stated)         5.7
19  CCc1ccccc1N(CC(=O)N1CCN(c2ccccc2F)CC1)S(C)(=O)=O         3.4
20  CC1(C)CC(=O)C(C2=NC(C)(C)Cc3ccccc32)=C(O)C1          -1
21         Cc1ccc(F)cc1NC(=O)c1cccc(N(C)C)c1           5
22  CCOC(=O)C1CCCCN1Cc1ccc(OC)c(OC)c1OC (configuration not stated)         6.8
